# STUDY_TARGET: AuroraB (Homo sapiens, UniProt Q96GD4)
# Construct: 20 µL of AuroraB FL His; His
# Sequence (Q96GD4 whole entry): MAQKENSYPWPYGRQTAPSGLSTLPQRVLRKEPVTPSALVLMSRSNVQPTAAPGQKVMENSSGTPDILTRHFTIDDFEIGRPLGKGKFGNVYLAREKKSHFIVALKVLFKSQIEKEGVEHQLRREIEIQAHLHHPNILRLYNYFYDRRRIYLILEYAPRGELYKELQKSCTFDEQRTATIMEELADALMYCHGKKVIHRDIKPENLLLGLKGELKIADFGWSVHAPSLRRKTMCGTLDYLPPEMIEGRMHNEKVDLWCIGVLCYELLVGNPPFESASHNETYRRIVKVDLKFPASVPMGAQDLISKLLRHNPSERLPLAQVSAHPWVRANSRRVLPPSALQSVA
# METHOD_SUMMARY: AuroraB Homogeneous Time Resolved Fluorescent (HTRF) kinase assay
# Assay type: biochemical
# CONDITION_CONTEXT: average; given as numbers, unit inferred; read-out: AurB_ _IC50_IP (Avg)
# Protocol: AuroraB-Homogeneous Time Resolved Fluorescent (HTRF) Kinase Assay: The AuroraB HTRF assay begins with AuroraB in the presence of ATP phosphorylating the biotinylated peptide Histone H3. […] The assay is quenched and stopped with 160 µL of detection reagent. […] Added to this buffer prior to reading is Steptavidin allophycocyanin (SA-APC) at a final conc in the assay of 0.001 mg/mL, and europilated anti-phosphoHistoneH3 Ab (Eu-anti-HisH3) at a final conc of 0.064 nM. […]
pIC50: −log10 of the molar value.
# binarize pIC50: threshold 8 inclusive, high side y, low side n

Check the entry Nc1nccc(-c2cccnc2Oc2ccc(Nc3nnc(-c4ccc(CCO)cc4)c4ccccc34)cc2)n1 [compound 247] : does pIC50 equal or exceed 8?
y

Check the entry Nc1nccc(-c2cccnc2Oc2ccc(Nc3nnc(-c4ccccc4)c4ccoc34)cc2)n1 [compound 250] : does pIC50 equal or exceed 8?
n

Check the entry CS(=O)(=O)c1cccc(-c2nnc(Nc3ccc(Oc4ncccc4-c4ccnc(N)n4)nc3)c3ccccc23)c1 [compound 318] : does pIC50 equal or exceed 8?
y

Check the entry Cc1csc(-c2nnc(Nc3ccc(Oc4ncccc4-c4ccnc5c4CCCN5)cc3)c3ccccc23)n1 [compound 284] : does pIC50 equal or exceed 8?
n

Check the entry COc1cccc(OC)c1-c1nnc(Nc2ccc(Oc3ncccc3-c3ccnc(N)n3)cc2)c2ccccc12 [compound 253] : does pIC50 equal or exceed 8?
n

Check the entry Nc1nccc(-c2cccnc2Oc2ccc(Nc3nnc(N4CCCC(O)C4)c4ccccc34)cc2)n1 (stereo not shown) [compound 354] : does pIC50 equal or exceed 8?
n

Check the entry C[C@@H](O)c1ccc(-c2nnc(Nc3ccc(Oc4ncccc4-c4ccnc(N)n4)cc3)c3ccccc23)cc1 [compound 256] : does pIC50 equal or exceed 8?
y

Check the entry Nc1n[nH]cc1-c1cccnc1Oc1ccc(Nc2nnc(-c3ccccc3)c3ccsc23)cc1 [compound 304] : does pIC50 equal or exceed 8?
n

Check the entry Cc1ccc(-c2nnc(Nc3ccc(Oc4ncccc4-c4ccnc(N)n4)nc3)c3ccccc23)nc1 [compound 289] : does pIC50 equal or exceed 8?
y

Check the entry Cc1csc(-c2nnc(Nc3ccc(Oc4ncccc4-c4ccnc(N)n4)cc3)c(C)c2C)c1 [compound 259] : does pIC50 equal or exceed 8?
y

Check the entry CN1CCN(CCCNc2ncc(F)c(-c3cccnc3Oc3ccc(Nc4nnc(-c5ccccc5)c5ccccc45)cc3)n2)CC1 [compound 291] : does pIC50 equal or exceed 8?
y

Check the entry Nc1n[nH]cc1-c1cccnc1Oc1ccc(Nc2nnc(-c3ccccc3)c3ccccc23)cc1F [compound 314] : does pIC50 equal or exceed 8?
y

Check the entry Cc1cc(-c2nnc(Nc3ccc(Oc4ncccc4-c4ccnc(N)n4)cc3)c3ccccc23)sn1 [compound 251] : does pIC50 equal or exceed 8?
y
